# run description: Henry solubility constant Hcp at 298.15 K (mol/(m3 Pa))
# condition summary: reference: Sanemasa et al. (1982)
Quick reference for Henry solubility constant Hcp among some compounds
Answer with the value's number alone.

chemical structure: Cc1cccc(C)c1
measurement: 0.0014
--
chemical structure: Cc1cccc(C)c1C
measurement: 0.0024
--
chemical structure: c1ccccc1
measurement: 0.0017
--
chemical structure: Cc1ccccc1C
measurement: 0.0019
--
chemical structure: CCCc1ccccc1
measurement: 0.00095
--
chemical structure: CC(C)c1ccccc1
measurement: 0.00089
--
chemical structure: Cc1ccc(C)cc1
measurement: 0.0013
--
chemical structure: Cc1ccc(C)c(C)c1
measurement: 0.0016
--
chemical structure: Cc1cc(C)cc(C)c1
measurement: 0.0011
--
chemical structure: CCc1ccccc1
measurement: 0.0013

According to the records, this compound Cc1ccccc1 displays Henry solubility constant Hcp of 0.0015
